Biological target: NS3 genotype 1b protease (Hepatitis C virus genotype 1b, UniProt Q9WMX2, E1202G)
Construct: Purified NS3 protease domain (amino acids 1-181) of the genotype 1b and 3a virus were generated as above; K3 hexahistidine tag (N); rTEV protease cleavage site (N); made in house; host or cells: E. coli BL21AI, pET28 vector p28-N6H-Tev-NS3(181)1b
Assay: Ki determination, NS3 protease genotype 1b (fluorogenic depsipeptide substrate)
Assay type: biochemical
Reported pKi values for the following compounds.
Recall that pKi is obtained by taking minus log10 of the concentration measured in molar.

Record excerpt, results attached:
>  <compound>
CC[C@@H]1[C@@H]2CN(C(=O)[C@H](C(C)(C)C)NC(=O)O[C@@H]3C[C@H]3CC/C=C/C(F)(F)c3nc4ccc(C#N)cc4nc3O2)[C@@H]1C(=O)N[C@]1(C(=O)NS(=O)(=O)C2(C)CC2)C[C@H]1C(F)F

>  <measurement_kind>
pKi

>  <reported_result>
10.40

$$$$
>  <compound>
CC[C@@H]1[C@@H]2CN(C(=O)[C@H](C(C)(C)C)NC(=O)O[C@@H]3C[C@H]3CCCCCc3nc4ccc(OC)cc4nc3O2)[C@@H]1C(=O)N[C@]1(C(=O)NS(=O)(=O)C2(C)CC2)C[C@H]1C(F)F

>  <measurement_kind>
pKi

>  <reported_result>
10.52

$$$$
>  <compound>
COc1ccc2nc3c(nc2c1)O[C@H]1CN(C(=O)[C@H](C(C)(C)C)NC(=O)O[C@@H]2C[C@H]2CCCCC3)[C@H](C(=O)N[C@]2(C(=O)NS(=O)(=O)C3(C)CC3)C[C@H]2C(F)F)[C@@H]1C1CC1

>  <measurement_kind>
pKi

>  <reported_result>
9.89

$$$$

For CC[C@@H]1[C@@H]2CN(C(=O)[C@H](C3CCCCC3)NC(=O)O[C@@H]3C[C@H]3CCCCCc3nc4ccc(OC)cc4nc3O2)[C@@H]1C(=O)N[C@]1(C(=O)NS(=O)(=O)C2(C)CC2)C[C@H]1C(F)F the compound record lists pKi as 10.05

For CC[C@@H]1[C@@H]2CN(C(=O)[C@H](C(C)(C)C)NC(=O)O[C@@H]3C[C@H]3CCCC3CC3c3nc4ccc(OC)cc4nc3O2)[C@@H]1C(=O)N[C@]1(C(=O)NS(=O)(=O)C2(C)CC2)C[C@H]1C(F)F (stereo partly shown) the compound record lists pKi as 10.00

For COc1ccc2nc3c(nc2c1)O[C@H]1CN(C(=O)[C@H](C(C)(C)C)NC(=O)O[C@@H]2C[C@H]2CCCCC3F)[C@H](C(=O)N[C@]2(C(=O)NS(=O)(=O)C3(C)CC3)C[C@H]2C(F)F)[C@@H]1C (stereo partly shown) the compound record lists pKi as 10.15

For CC[C@@H]1[C@@H]2CN(C(=O)[C@H](C(C)(C)C)NC(=O)O[C@@H]3C[C@H]3CCCCC(F)(F)c3nc4ccc(OC)cc4nc3O2)[C@@H]1C(=O)N[C@]1(C(=O)NS(=O)(=O)C2(C)CC2)C[C@H]1C(F)F the compound record lists pKi as 10.40

For CC[C@@H]1[C@@H]2CN(C(=O)[C@H](C(C)(C)C)NC(=O)O[C@]3(C)CCC[C@H]3CCCCCc3nc4ccc(OC)cc4nc3O2)[C@@H]1C(=O)N[C@]1(C(=O)NS(=O)(=O)C2(C)CC2)C[C@H]1C(F)F the compound record lists pKi as 10.10

Reference source for all entries: patent US20150175655A1
